# testSummary: gradient 5% acetonitrile 3 min, to 50% in 2 min, to 85% in 15 min, held 3 min, 100 µL/min
# measurementSetup: column: Zorbax Extend-C18 2.1 x 50 mm; eluents: water / acetonitrile, 0.1% formic acid
Recorded measurements of RP-LC retention time, one per entry
attributeMeasured: RP-LC retention time (s)

O=C(Nc1ccc(F)cc1Cl)C1CCc2sc(C(=O)N3CCOCC3)cc2C1 (configuration not stated) | 748
CCCn1cc(CCNC(=O)Nc2c(C)cccc2C)c2cccnc21 | 736
COc1ccc(CNc2ncc(C(=O)O)c(C(C)C)n2)cc1OC | 863
CCCC(NC(=O)Cc1cccs1)C(=O)Nc1nc2ccccc2[nH]1 (configuration not stated) | 692
O=C(Nc1ccc2c(c1)OCCO2)N1CCC2(CC1)Nc1ccccc1-n1cccc12 | 934
CCc1ccc(NC(=O)N2CCC(n3cnc4c(C)cccc4c3=O)CC2)cc1 | 838
COc1ccc(-c2cc(N3CCN(C(=O)NCCC(C)C)CC3)ncn2)cc1 | 670
COc1ccc(C(=O)N2C[C@@H](Oc3cccnc3)C[C@H]2C(=O)NC2CC2)cn1 | 562
Cn1nc(-c2nc(C3CC3)no2)c2c1CCN(S(=O)(=O)c1ccc(F)cc1)C2 | 925
COc1cccc(-c2noc(Cn3c(=O)n(-c4ccc(F)cc4)c(=O)c4sccc43)n2)c1 | 952
COc1ccccc1-c1nc(Cn2nnc(-c3nc(-c4cccc(C(F)(F)F)c4)no3)c2C)c(C)o1 | 1250
COc1ccc(OC)c(-c2[nH]ncc2CN2CC(F)(F)C[C@H]2CN2CCCCCC2)c1 | 578

* * *

# testSummary: gradient 5% acetonitrile 3 min, to 50% in 2 min, to 85% in 15 min, held 3 min, 100 µL/min
# measurementSetup: column: Zorbax Extend-C18 2.1 x 50 mm; eluents: water / acetonitrile, 0.1% formic acid
attributeMeasured: RP-LC retention time (s)

CN(C)CCn1nnc2cc(-c3noc(Cc4ccc(F)cc4)n3)ccc21 | 714
Nc1ncnc(NC2CCCC2)c1[N+](=O)[O-] | 679
Cc1nc2cc3c(cc2n1CC(=O)NC1CCCc2ccccc21)OCCO3 (centres undefined) | 682
O=S(=O)(c1cccs1)N1CC(c2nc(-c3ccncc3)no2)C1 | 679

* * *

Each entry below carries its reported RP-LC retention time.
# testSummary: gradient 5% acetonitrile 3 min, to 50% in 2 min, to 85% in 15 min, held 3 min, 100 µL/min
# measurementSetup: column: Zorbax Extend-C18 2.1 x 50 mm; eluents: water / acetonitrile, 0.1% formic acid
attributeMeasured: RP-LC retention time (s)

CCOc1ccc(C(=O)NC2(c3nc(-c4cccnc4)no3)CCCCC2)cc1OCC | 998
CCn1cccc1-c1nc(-c2ccncc2)no1 | 833
COCC(=O)NC1CCC12CCN(C(=O)c1ccco1)CC2 (stereo not drawn) | 648
CN(CC1(C)CCOCC1)S(=O)(=O)c1cccc(C(F)(F)F)c1 | 980
Cc1noc(C)c1CN1CC2(CCCCC2)CC1COc1ccncc1 (stereo not drawn) | 637
COc1ccc(Nc2c(-c3ccc(O)c(OC)c3)nc3nc(C)cc(C)n23)cc1 | 617
CCC(=O)Nc1nc(-c2ccc3c(c2)NC(=O)CO3)c(C)s1 | 719
Cc1ccc(C(=O)NC2(c3nc(-c4ccccc4)no3)CCCCC2)cc1C | 1250

* * *

# testSummary: gradient 5% acetonitrile 3 min, to 50% in 2 min, to 85% in 15 min, held 3 min, 100 µL/min
# measurementSetup: column: Zorbax Extend-C18 2.1 x 50 mm; eluents: water / acetonitrile, 0.1% formic acid
attributeMeasured: RP-LC retention time

CSc1ccccc1NC(=O)C(=O)NN1CCN(C)CC1 | 559 s
CN(C)S(=O)(=O)c1ccc(CNC(=O)c2cccc(-c3nnc(-c4ccccc4)o3)c2)s1 | 904 s
Cc1ncoc1C(=O)N1CCC(c2noc(-c3ccccc3)n2)C1 (configuration not stated) | 763 s
O=C1OC(Cc2ccccc2)C(c2ccccc2)C1=O (configuration not stated) | 976 s
O=C(CN1C(=O)C2CCCCN2c2ccc(C(=O)N3CCCCC3)cc21)NCc1cccnc1 (configuration not stated) | 615 s
Cc1noc(C)c1S(=O)(=O)NCCOc1cc(N2CCOCC2)ncn1 | 643 s
COCC(=O)NC1CCC12CCN(S(=O)(=O)c1c(C)nn(C)c1C)CC2 (configuration not stated) | 657 s
CCC(=O)Nc1ccc(-n2cnc(C(=O)NCC3CCCO3)c2)nc1 (configuration not stated) | 614 s
COCC(=O)Nc1ccc2nc(N3CCN(C4CCCCC4)CC3)cc(C(=O)O)c2c1 | 558 s
CN1C(=O)c2cc(C(=O)Nc3ccc(Cl)cc3)nn2CC1(C)C(=O)NC1CCCCC1 (configuration not stated) | 898 s
CCOc1ccccc1NC(=O)Nc1ccc2c(c1)CCN2S(=O)(=O)c1ccccc1 | 1040 s
CCC(C)NC(=O)C1CCN(C2=NS(=O)(=O)C(c3ccc(OC)cc3)=C2C)CC1 (configuration not stated) | 795 s
O=C(C1CCN(S(=O)(=O)c2ccc3[nH]c(=O)ccc3c2)CC1)N1CCN(c2ccccc2)CC1 | 735 s
O=C(CCC1CCN(S(=O)(=O)c2ccccc2)CC1)NCc1ccco1 | 776 s
Cc1ccc(-c2csc(-n3nc(C)c(CC(=O)NCc4ccccc4)c3C)n2)cc1 | 1160 s
COc1ccc(S(=O)(=O)N2CCCC(C(=O)Nc3ccc(Br)cc3)C2)cc1C (configuration not stated) | 1110 s
Cc1cc(NC(=O)Cn2ccn3nc(-c4ccccc4)c(CO)c3c2=O)n[nH]1 | 644 s
CCOC(=O)C1CCN(c2cc(-c3nc(-c4ccccc4)no3)c3ccccc3n2)CC1 | 1370 s
Cc1ccccc1-c1nnc(CSc2nnc(NC(=O)Cc3ccc(F)cc3)s2)o1 | 923 s
O=C(Nc1nc2ccccc2s1)C1CCN(C(=O)c2ccccc2Cl)CC1 | 829 s
Cn1cnc(S(=O)(=O)N2CCOc3ccc(CN4CCc5ccccc5C4)cc3C2)c1 | 518 s
COc1cc(OC)cc(C(=O)Nc2nc(-c3ccc4c(c3)N(C)C(=O)C(C)O4)cs2)c1 (configuration not stated) | 1040 s
CC(C(=O)NCCN1CCCCCC1)n1c(=O)c(C(F)(F)F)nc2ccccc21 (configuration not stated) | 713 s
Cc1ccc(C(=O)Nc2ccc3ncnc(N4CCCCC4)c3c2)s1 | 701 s
COc1ccc(-c2noc(C3CC(=O)N(c4ccc(C)c(Cl)c4)C3)n2)cc1OC (configuration not stated) | 1020 s
CC(C)C(=O)N1CCC2(C1)c1nc[nH]c1CCN2CC1CCCCC1 (configuration not stated) | 608 s
CNC(=O)c1ccc(-c2nc3cc(NS(=O)(=O)c4ccc(C)cc4C)ccc3n2C)cc1 | 657 s
COc1ccc(Cl)cc1C(=O)N1CCN(c2cc(C)nc(N3CCCC3)n2)CC1 | 665 s
COc1ccc(N2CC(c3nc(-c4ccc(N(C)C)cc4)no3)CC2=O)cc1Cl (configuration not stated) | 1030 s
Cc1ccc2[nH]cc(CCN3CC(C(=O)Nc4ccc(Cl)cc4)CC3=O)c2c1 (configuration not stated) | 882 s
Cc1cc(C)c(NC(=O)/C=C/c2ccccc2)c(C)c1 | 898 s
CC(=O)c1cccc(NC(=O)C2Oc3ccccc3NC2=O)c1 (configuration not stated) | 702 s

* * *

# testSummary: gradient 5% acetonitrile 3 min, to 50% in 2 min, to 85% in 15 min, held 3 min, 100 µL/min
# measurementSetup: column: Zorbax Extend-C18 2.1 x 50 mm; eluents: water / acetonitrile, 0.1% formic acid
true if RP-LC retention time is below 700 s. false if not; exact matches included in false.

COC(=O)c1cccc(NC(=O)c2sc(-c3cn(C(C)C)c4ncccc34)nc2C)c1 | false
CC(C)CN1Cc2ccccc2-n2ccnc2C12CCN(C(=O)c1ccco1)CC2 | true
CC(=O)Nc1ccc(OC(=O)Oc2ccc(NC(C)=O)cc2)cc1 | false
Cc1nn(CCCC(=O)N2CCN(c3ccccn3)CC2)c(=O)c2cc3sccc3n12 | true
CCn1cc(-c2nc(CC(=O)Nc3ccc(F)c(F)c3)cs2)c2cccnc21 | false
CCN1C(=O)COc2ccc(-c3nc(NC(=O)c4cccc(Cl)c4)sc3C)cc21 | false
Cc1cc(C)cc(NC(=O)C2CCN(S(=O)(=O)c3c(C)nn(-c4ccccc4)c3C)CC2)c1 | false
Cc1oc(C2CCN(C(=O)Nc3ccc4c(c3)CCC4)CC2)nc1C(=O)N1CCCC1 | false
Cc1cccc(-n2c(=O)c3c(cc(C)n3C)n(CC(=O)Nc3ccccc3Cl)c2=O)c1 | false

* * *

# testSummary: gradient 5% acetonitrile 3 min, to 50% in 2 min, to 85% in 15 min, held 3 min, 100 µL/min
# measurementSetup: column: Zorbax Extend-C18 2.1 x 50 mm; eluents: water / acetonitrile, 0.1% formic acid
Classify: 1.0 when RP-LC retention time is strictly less than 800 s; 0.0 when RP-LC retention time is not.

O=C(c1cc(-c2ccccc2)n(C2CCS(=O)(=O)C2)n1)N1CCCC1 (stereo unspecified) | 1.0
O=C(c1ccc2c(c1)Sc1ncccc1C(=O)N2C1CC1)N1CCCCC1 | 1.0
c1cc(-c2noc(C3CCCC3)n2)cc(N2CCOCC2)n1 | 0.0
O=C(c1ccc(OCC2CCCN(C(=O)C3CCCC3)C2)cc1)N1CCOCC1 (stereo unspecified) | 1.0
Cc1ccc(-c2nc(C3CC(=O)N(c4ccc(Cl)cc4)C3)no2)c(C)c1 (stereo unspecified) | 0.0
Cc1noc(C)c1CC(=O)N1CC[C@@H]2CN(S(C)(=O)=O)[C@@H]2C1 | 1.0
